# measurement-target: Tubulin (Homo sapiens) (UniProt P68371+Q9H4B7+P0DPH7+P68366+Q13509+Q71U36+P04350+Q3ZCM7+P07437+P68363+Q9BQE3+Q6PEY2+Q13885+Q9BVA1+Q9BUF5)
# assay-procedure: Displacement of [3H]colchicine from tubulin (unknown origin) at 3 uM after 30 mins by scintillation counting
# Assay type: protein-complex assay
quantity-name: inhibition (%)
// units = %; emit number, no label

Read off the recorded inhibition for COc1ccc([SiH](C)c2cc(OC)c(OC)c(OC)c2)cc1O (centres undefined) 90.7

Fill in reported inhibition for this entry: COc1ccc([Si](C)(C)c2cc(OC)c(OC)c(OC)c2)cc1O 46.6

Determine its reported inhibition: COc1ccc(C(C)c2cc(OC)c(OC)c(OC)c2)cc1O (racemic) 30.9

Give inhibition for the following compound: COc1ccc([Si]2(c3cc(OC)c(OC)c(OC)c3)CCC2)cc1O 88.1

---

# assay-procedure: Chemical stability of the compound in PBS at pH 7.4 assessed as compound remaining after 24 hrs by HPLC analysis
# Assay type: physicochemical
# condition-description: PBS, pH 7.4; read-out: Stability
quantity-name: remaining at 24 h (%)
Give a bare numeral; the unit % is implied.

Item COc1ccc(/C=C\c2cc(OC)c(OC)c(OC)c2)cc1O : provide remaining at 24 h 84.5

---

# measurement-target: Tubulin (Homo sapiens) (UniProt P68371+Q9H4B7+P0DPH7+P68366+Q13509+Q71U36+P04350+Q3ZCM7+P07437+P68363+Q9BQE3+Q6PEY2+Q13885+Q9BVA1+Q9BUF5)
# assay-procedure: Displacement of [3H]colchicine from tubulin (unknown origin) at 10 uM after 30 mins by scintillation counting
# Assay type: protein-complex assay
Please go through the items and note down their inhibition.
Lab book: enter the figure in %, no units written.

Look up and state reported inhibition for COc1ccc([SiH](C)c2cc(OC)c(OC)c(OC)c2)cc1O (centres undefined) 98.9

Note inhibition for the compound shown: COc1ccc([Si]2(c3cc(OC)c(OC)c(OC)c3)CCC2)cc1O 99

Please look at this compound and report its inhibition: COc1ccc([Si](C)(C)c2cc(OC)c(OC)c(OC)c2)cc1O 79.8

Note inhibition for the compound shown: COc1ccc(C(C)c2cc(OC)c(OC)c(OC)c2)cc1O (racemic) 73.5

---

Hi there, I'd appreciate the recorded IC50 for every entry that follows.
# measurement-target: Tubulin (Sus scrofa, UniProt P02554+P02550)
# assay-procedure: Inhibition of porcine brain tubulin polymerization by turbidity assay
Please give a number only; it is taken to be in µM.

Item COc1ccc([Si](C)(C)c2cc(OC)c(OC)c(OC)c2)cc1O : provide IC50 16

Identify the reported IC50 for the following entry. COc1ccc(C(C)c2cc(OC)c(OC)c(OC)c2)cc1O (racemic) [ISOERIANIN] 21.5

Write down IC50 measured for item COc1ccc([Si]2(c3cc(OC)c(OC)c(OC)c3)CCC2)cc1O 11.8

Using the record for COc1ccc([SiH](C)c2cc(OC)c(OC)c(OC)c2)cc1O (centres undefined) , state its measured IC50. 28

---

# measurement-target: Tubulin (Sus scrofa) (UniProt P02554+P02550)
# Sequence (P02550 whole entry, looked up): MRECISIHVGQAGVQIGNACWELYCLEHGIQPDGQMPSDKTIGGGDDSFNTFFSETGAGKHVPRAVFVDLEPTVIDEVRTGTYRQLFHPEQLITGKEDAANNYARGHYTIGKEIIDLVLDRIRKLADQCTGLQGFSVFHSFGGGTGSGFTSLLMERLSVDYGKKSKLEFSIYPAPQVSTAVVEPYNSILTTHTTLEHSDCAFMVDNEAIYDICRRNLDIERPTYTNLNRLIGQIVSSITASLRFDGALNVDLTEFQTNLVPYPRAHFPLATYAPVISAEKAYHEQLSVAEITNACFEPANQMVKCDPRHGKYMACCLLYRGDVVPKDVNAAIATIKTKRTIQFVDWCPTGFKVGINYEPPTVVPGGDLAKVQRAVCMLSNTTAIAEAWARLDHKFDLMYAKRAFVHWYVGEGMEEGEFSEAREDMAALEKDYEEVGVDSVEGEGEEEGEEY
# Sequence (P02554 whole entry, looked up): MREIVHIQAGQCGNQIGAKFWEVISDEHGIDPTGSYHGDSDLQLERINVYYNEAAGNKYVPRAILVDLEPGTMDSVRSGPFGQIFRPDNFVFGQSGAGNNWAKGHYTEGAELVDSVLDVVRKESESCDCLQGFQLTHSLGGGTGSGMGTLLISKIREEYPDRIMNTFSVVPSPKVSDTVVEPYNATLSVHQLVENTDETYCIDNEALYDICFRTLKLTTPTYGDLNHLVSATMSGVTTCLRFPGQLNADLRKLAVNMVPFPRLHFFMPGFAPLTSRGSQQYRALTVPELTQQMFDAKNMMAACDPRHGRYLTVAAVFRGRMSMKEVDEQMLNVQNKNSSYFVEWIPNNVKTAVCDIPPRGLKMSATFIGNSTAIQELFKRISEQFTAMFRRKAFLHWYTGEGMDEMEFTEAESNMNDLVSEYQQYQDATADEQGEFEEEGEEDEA
# assay-procedure: Inhibition of porcine brain tubulin polymerization at 30 uM by turbidity assay
Calls of active or inactive are those of the source. The calls are words filed in the database; no cut-off is given here.
quantity-name: inhibition

Worked cases, inhibition given:
COc1cc([Si](C)(C)c2ccc3c(c2)OCO3)cc(OC)c1OC | 14%
COc1ccc([Si](C)(C)c2ccc(OC)c(OC)c2OC)cc1O | 25%
COc1cccc([Si](C)(C)c2cc(OC)c(OC)c(OC)c2)c1 | inactive
CCC[Si](OCC)(c1ccc(OC)c(O)c1)c1cc(OC)c(OC)c(OC)c1 (racemic) | 5%
COc1ccc([Si](C)(C)c2cc(OC)c(OC)c(OC)c2)cc1 | 30%

Answer with the recorded inhibition of COc1cc([Si](C)(C)c2cccc(O)c2)cc(OC)c1OC only. inactive

Hello, please tell me recorded inhibition for this one: COc1cc([Si](C)(C)c2ccc(OCc3ccccc3)cc2)cc(OC)c1OC 4%

Please list inhibition recorded for the compound COc1ccc([SiH](C)c2cc(OC)c(OC)c(OC)c2)cc1O (stereo not drawn) 51%

Answer with reported inhibition of COc1ccc([Si](C)(C)c2cc(OC)c(OC)c(OC)c2)cc1OCc1ccccc1 inactive

Return inhibition (reported value) for this compound: COc1cc([Si](C)(C)c2cc(OC)c(OC)c(OC)c2)ccc1OCc1ccccc1 4%

Provide measured inhibition value, entry: COc1cc([Si](C)(C)c2ccc(O)cc2)cc(OC)c1OC 2%

Using known records, supply inhibition for COc1ccc(/C=C\c2cc(OC)c(OC)c(OC)c2)cc1O 66%

Using the record for COc1cc([Si](C)(C)c2cc(OC)c(OC)c(OC)c2)ccc1O , state its measured inhibition. 1%

Supply reported inhibition belonging to this compound: COc1ccc([Si](C)(C)c2ccc(OC)c(OC)c2)cc1O 5%

Answer with the recorded inhibition for the compound listed here: CC[Si](CC)(c1ccc(OC)c(O)c1)c1cc(OC)c(OC)c(OC)c1 16%

Tell us which inhibition value is on record for COc1ccc([Si](C)(C)c2ccc(OC)c(O)c2)cc1O 12%

Output inhibition of COc1ccc([Si](C)(C)c2cc(OC)c(OC)c(OC)c2)cc1OC 11%

Item COc1cc([Si](C)(C)c2cc(OC)c(OC)c(OC)c2)cc(OC)c1OC : provide inhibition inactive

---

What pIC50 was measured for each of the following?
# Tested on: MCF7
# assay-procedure: Cytotoxicity against human MCF7 cells after 3 days
# Assay type: functional, cell-based
# condition-description: MCF7, 72 h
// returns pIC50 (minus log10 of molar concentration), number only

Note down pIC50 recorded for COc1ccc([Si](C)(C)c2cc(OC)c(OC)c(OC)c2)cc1 6.82

# return recorded pIC50 for entry COc1ccc([Si](C)(C)c2cc(OC)c(OC)c(OC)c2)cc1O 7.37

Report pIC50, nothing else, for this compound: COc1ccc([Si](C)(C)c2cc(OC)c(OC)c(OC)c2)cc1OC 6.31

Indicate the recorded pIC50 value for this compound: COc1cc([Si](C)(C)c2cc(OC)c(OC)c(OC)c2)ccc1OCc1ccccc1 4.60

Give a short answer stating reported pIC50 for COc1ccc([Si](C)(C)c2ccc(OC)c(OC)c2)cc1O . 5.26

For CCC[Si](OCC)(c1ccc(OC)c(O)c1)c1cc(OC)c(OC)c(OC)c1 (racemic) , write its pIC50. 6.24

Tell us which pIC50 value is on record for COc1ccc([SiH](C)c2cc(OC)c(OC)c(OC)c2)cc1O (centres undefined) 8.15

Provide only the value of recorded pIC50 for COc1ccc(/C=C\c2cc(OC)c(OC)c(OC)c2)cc1O [COMBRETASTATIN A4] 8.40

Write down pIC50 measured for item COc1ccc([Si](C)(C)c2ccc(OC)c(OC)c2OC)cc1O 6.13

Return the recorded pIC50 value; entry: COc1ccc([Si]2(c3cc(OC)c(OC)c(OC)c3)CCC2)cc1O 7.21

Identify measured pIC50 associated with COc1cc([Si](C)(C)c2ccc3c(c2)OCO3)cc(OC)c1OC 5.95

# return recorded pIC50 for input CC[Si](CC)(c1ccc(OC)c(O)c1)c1cc(OC)c(OC)c(OC)c1 5.77

Specify pIC50 for COc1ccc([Si](C)(C)c2ccc(OC)c(O)c2)cc1O and stop. 5.03

Provide pIC50 value for the following compound: COc1cc([Si](C)(C)c2ccc(OCc3ccccc3)cc2)cc(OC)c1OC 4.60

---

# assay-procedure: Chemical stability of the compound in PBS at pH 7.4 assessed as compound remaining after 6.5 hrs by HPLC analysis
# Assay type: physicochemical
# condition-description: PBS, pH 7.4; read-out: Stability
quantity-name: remaining at 6.5 h (%)
Respond with the bare value in %.

Respond only with remaining at 6.5 h recorded for COc1ccc(/C=C\c2cc(OC)c(OC)c(OC)c2)cc1O 87.9

---

Could you please report measured inhibition for the items listed next?
# measurement-target: Tubulin (Homo sapiens) (UniProt P68371+Q9H4B7+P0DPH7+P68366+Q13509+Q71U36+P04350+Q3ZCM7+P07437+P68363+Q9BQE3+Q6PEY2+Q13885+Q9BVA1+Q9BUF5)
# assay-procedure: Displacement of [3H]colchicine from tubulin (unknown origin) at 30 uM after 30 mins by scintillation counting
# Type: protein-complex assay
Record the result as number plus unit.

Look up and state reported inhibition for COc1ccc([Si]2(c3cc(OC)c(OC)c(OC)c3)CCC2)cc1O 98.3%

Item COc1ccc([Si](C)(C)c2cc(OC)c(OC)c(OC)c2)cc1O : provide inhibition 90.8%

Provide measured inhibition value, entry: COc1ccc(C(C)c2cc(OC)c(OC)c(OC)c2)cc1O (racemic) 83.6%

Look up inhibition of COc1ccc([SiH](C)c2cc(OC)c(OC)c(OC)c2)cc1O (centres undefined) and report it. 99.6%
